The measured values listed here are drawn from ChEMBL document CHEMBL3507680.

- Method Description: Human HepG2 cell viability assay in 384 well format
- Assay type: toxicity, cell-based
- Design: dose 125 nL, time 70.5 hour; concentration not given beside the values
- Condition Info: HepG2 cells, read-out: Inhibition
I'd be grateful if you could share measured cytotoxicity at 70.5 h for these entries.
Express the result in % but write the number alone.

Please indicate cytotoxicity at 70.5 h recorded for CN1CCC(NC(=O)CC2CN(Cc3ccccc3)CCO2)CC1 (configuration not stated)
-5.42

Please indicate cytotoxicity at 70.5 h recorded for CC(=O)Nc1ccc(SCC(O)COCc2ccc3c(c2)OCO3)cc1 (configuration not stated)
-4.91

Please indicate cytotoxicity at 70.5 h recorded for Cc1c(C)n2c(SCC(=O)N3CCC(C)CC3)nnc2[nH]c1=O
-4.99

Please indicate cytotoxicity at 70.5 h recorded for CCCN(CC1COc2ccccc2O1)C(=O)CCN1C(=O)CCC1=O (configuration not stated)
-18.8

Please indicate cytotoxicity at 70.5 h recorded for COc1ccnc(NCc2ccccc2Cn2cccn2)n1
-1.62

Please indicate cytotoxicity at 70.5 h recorded for Cn1ncc2c1CCCC2NCc1cccc(OC2CCCC2)c1 (configuration not stated)
-5.51

Please indicate cytotoxicity at 70.5 h recorded for COc1cccn(CC(=O)N(C)CCOc2cc(C)cc(C)c2)c1=O
2.11

Please indicate cytotoxicity at 70.5 h recorded for COc1cccc(-c2cnc3n2CCC32CCN(S(C)(=O)=O)CC2)c1
-2.2

Please indicate cytotoxicity at 70.5 h recorded for Cc1cccc(-n2cnc(Cl)c2CO)c1
-0.946

Please indicate cytotoxicity at 70.5 h recorded for CCc1oc(C(=O)OC)cc1Cn1cccc(C(F)(F)F)c1=O
-1.62

Please indicate cytotoxicity at 70.5 h recorded for CN(Cc1ccc2nonc2c1)C(=O)c1ccc(C2CCCO2)s1 (configuration not stated)
-4.66

Please indicate cytotoxicity at 70.5 h recorded for COc1ncccc1CN1Cc2nccn2CC(CN2CCCC2)C1 (configuration not stated)
-2.53

* * *

I'd be grateful if you could share measured cytotoxicity at 70.5 h for these entries.
- Method Description: Human HepG2 cell viability assay in 384 well format
- Type: toxicity, cell-based
- Parameters: dose 125 nL, time 70.5 hour; concentration not given beside the values
- Condition Info: HepG2 cells, read-out: Inhibition
Express the result in % but write the number alone.

Please indicate cytotoxicity at 70.5 h recorded for O=C(c1ccc(NC2CC2)nc1)N1CCCC(n2cccn2)C1 (configuration not stated)
-4.81

Please indicate cytotoxicity at 70.5 h recorded for CCn1ncc2c1CN(C(=O)c1cc(C)oc1C)CC2COC (configuration not stated)
-0.428

Please indicate cytotoxicity at 70.5 h recorded for CCN(Cc1ccc(OC)c(F)c1)C(=O)c1ccc(C)[nH]c1=O
-3.76

Please indicate cytotoxicity at 70.5 h recorded for CCc1nc(C2CCCN(C(=O)c3ccccc3F)C2)no1 (configuration not stated)
-2.67

Please indicate cytotoxicity at 70.5 h recorded for Cc1csc(N2CCN(C(=O)CCc3ccccn3)CC2)n1
-2.58

Please indicate cytotoxicity at 70.5 h recorded for Cc1cccc(N2CCN(CCC(=O)NCc3cccnc3)CC2)c1
-0.687

Please indicate cytotoxicity at 70.5 h recorded for COc1ccccc1CC1CCCN(CCC(N)=O)C1 (configuration not stated)
5.7

Please indicate cytotoxicity at 70.5 h recorded for Cc1nn(C)c(C)c1C1CCCN1CC(=O)NCc1ccccn1 (configuration not stated)
-5.71

Please indicate cytotoxicity at 70.5 h recorded for Cc1noc(C)c1-c1cccc(CC2CCN(C(=O)CCC(=O)O)C2)n1 (configuration not stated)
-11.7

Please indicate cytotoxicity at 70.5 h recorded for COCCNC(=O)[C@@]12CCO[C@@H]1CCN(Cc1c(C)noc1C)C2
-5.87

Please indicate cytotoxicity at 70.5 h recorded for Cc1nnn2c1COCC(CNC(=O)c1ccc3[nH]ccc3c1)C2 (configuration not stated)
-9.06

Please indicate cytotoxicity at 70.5 h recorded for CCCC(C)CS(=O)(=O)NCCc1csc(N2CCCC2)n1 (configuration not stated)
-2.73

* * *

I'd be grateful if you could share measured cytotoxicity at 70.5 h for these entries.
- Method Description: Human HepG2 cell viability assay in 384 well format
- Assay type: toxicity, cell-based
- Design: dose 125 nL, time 70.5 hour; concentration not given beside the values
- Condition Info: HepG2 cells, read-out: Inhibition
Express the result in % but write the number alone.

Please indicate cytotoxicity at 70.5 h recorded for Cc1cc(C2CCCN(Cc3noc(Cc4ccccc4)n3)C2)n[nH]1 (stereo unspecified)
-1

Please indicate cytotoxicity at 70.5 h recorded for COCCCn1ccc(NCc2cnc(C(C)(C)C)s2)n1
27.4

Please indicate cytotoxicity at 70.5 h recorded for O=C(O)c1cc(-n2cc3c(n2)CCC3)cc(S(=O)(=O)N2CCOCC2)c1
3.53

Please indicate cytotoxicity at 70.5 h recorded for CN(Cc1ccccc1)CC(O)Cn1cnc2c(Cl)cc(Cl)cc2c1=O (stereo unspecified)
-9.03

Please indicate cytotoxicity at 70.5 h recorded for CC(C)C(=O)Nc1cc(C(=O)NC2CC(C)(C)NC(C)(C)C2)nn1C
14.5

Please indicate cytotoxicity at 70.5 h recorded for Cc1cc(C(=O)N2CCCC(n3cncn3)C2)on1 (stereo unspecified)
26.7

* * *

- Method Description: Human HepG2 cell viability assay in 384 well format
- Assay type: toxicity, cell-based
- Set-up: dose 125 nL, time 70.5 hour; concentration not given beside the values
- Condition Info: HepG2 cells, read-out: Inhibition
Measure Name: cytotoxicity at 70.5 h (%)
Express the result in % but write the number alone.

Please indicate cytotoxicity at 70.5 h recorded for CC(=O)N1CCN(C)CC(COCc2ccccc2)C1 (stereo unspecified)
-3.41

Please indicate cytotoxicity at 70.5 h recorded for COc1ccc(CN2CC(=O)N(c3ccc(C)cc3)CC2C)cc1O (stereo unspecified)
-2.16

Please indicate cytotoxicity at 70.5 h recorded for CCCC1COCCN1Cc1ccc(C(=O)O)cc1 (stereo unspecified)
-4.7

Please indicate cytotoxicity at 70.5 h recorded for CN(Cc1nccn1C)CC1CCOc2ccccc2C1 (stereo unspecified)
22.3

Please indicate cytotoxicity at 70.5 h recorded for O=C(CO)N1CCOC2(CCCN(c3ncc(F)cn3)C2)C1 (stereo unspecified)
-0.965

Please indicate cytotoxicity at 70.5 h recorded for Cc1nc(C(=O)N2CCN(S(=O)(=O)N(C)C)CC2)c(-c2ccccc2)s1
13.5

Please indicate cytotoxicity at 70.5 h recorded for CCc1nnc(Nc2cccc(C3CCN(S(=O)(=O)N(C)C)CC3)n2)s1
-6.79

Please indicate cytotoxicity at 70.5 h recorded for CC(=O)N1CCCn2nc(CNS(=O)(=O)N3CCCCCC3)cc2C1
-10.6

Please indicate cytotoxicity at 70.5 h recorded for Cc1noc(C)c1CN1C[C@H](C)[C@]2(CCN(Cc3cccnc3)C2=O)C1
-8.9

Please indicate cytotoxicity at 70.5 h recorded for O=C(Nc1cccnc1-n1cc(Cl)cn1)C1CCCCC1
-26.8

Please indicate cytotoxicity at 70.5 h recorded for O=C(NCCc1cccs1)[C@]12COC[C@H]1CN(Cc1ccncc1)C2
-9.54

* * *

I'd be grateful if you could share measured cytotoxicity at 70.5 h for these entries.
- Method Description: Human HepG2 cell viability assay in 384 well format
- Format: toxicity, cell-based
- Parameters: dose 125 nL, time 70.5 hour; concentration not given beside the values
- Condition Info: HepG2 cells, read-out: Inhibition
Express the result in % but write the number alone.

Please indicate cytotoxicity at 70.5 h recorded for CCc1[nH]ncc1C(=O)N1CCN(c2nc(C)cc(OC)n2)CC1
-4.16

Please indicate cytotoxicity at 70.5 h recorded for Cc1ccc(C(=O)N2CCC3(CC2)CC(N2CCOCC2)C3)cc1
-12.7

Please indicate cytotoxicity at 70.5 h recorded for O=C1NCC(CN2CCc3onc(-c4ccc(C(F)(F)F)cc4)c3C2)O1 (stereo unspecified)
-17.3

Please indicate cytotoxicity at 70.5 h recorded for CCc1ncnc(N2CCOCC2C(N)=O)c1F (stereo unspecified)
-5.74

Please indicate cytotoxicity at 70.5 h recorded for CCSc1nnc(N2CCN(c3ccccc3)CC2)s1
0.78

Please indicate cytotoxicity at 70.5 h recorded for CCC[C@@H]1CN(C(=O)CCc2ccco2)C[C@H]1NS(C)(=O)=O
29

* * *

I'd be grateful if you could share measured cytotoxicity at 70.5 h for these entries.
- Method Description: Human HepG2 cell viability assay in 384 well format
- Assay type: toxicity, cell-based
- Set-up: dose 125 nL, time 70.5 hour; concentration not given beside the values
- Condition Info: HepG2 cells, read-out: Inhibition
Express the result in % but write the number alone.

Please indicate cytotoxicity at 70.5 h recorded for O[C@H]1[C@H](n2cc(-c3ccccn3)nn2)c2ccccc2C12CCNCC2
-3.68

Please indicate cytotoxicity at 70.5 h recorded for CN(Cc1nnc(C2CC2)n1C)C1CCN(Cc2ccncc2)C1 (stereo not drawn)
-2.37

Please indicate cytotoxicity at 70.5 h recorded for O=C(NCCCN1CCOCC1)c1cccc(OCc2ccccc2)c1
-2.84

Please indicate cytotoxicity at 70.5 h recorded for COCCN1CC(O)CN(C(=O)c2cccc(C(F)(F)F)c2)CC1=O (stereo not drawn)
-0.767

Please indicate cytotoxicity at 70.5 h recorded for CN1CCN(Cc2cccnc2)C(=O)C12CCN(Cc1ccco1)CC2
-8.43

Please indicate cytotoxicity at 70.5 h recorded for Cc1noc(C)c1CN1C[C@H](OCC2CCN(C)CC2)[C@H]2COC[C@H]21
30.4

Please indicate cytotoxicity at 70.5 h recorded for CN1CCN(C[C@@H]2CN(C(=O)CCc3cn[nH]c3)C[C@@H]2CO)CC1
-6.13

Please indicate cytotoxicity at 70.5 h recorded for O=C(NC1CCN(C2CC2)CC1)c1cc(Cl)ccc1-n1cnnn1
8.23

Please indicate cytotoxicity at 70.5 h recorded for CCOc1ccc(NC(=O)c2cc3c([nH]c2=O)CCC3)cc1
-13.3

Please indicate cytotoxicity at 70.5 h recorded for COc1c(CNCc2ccc(N3CCOCC3)cc2)c(C)nn1C
-9.85

Please indicate cytotoxicity at 70.5 h recorded for NC(=O)Cn1cc(NC(=O)NCC2CCN(c3ccccc3)C2)cn1 (stereo not drawn)
-8.01

Please indicate cytotoxicity at 70.5 h recorded for c1cnn(CC2CCCCN2Cc2nc(-c3ccoc3)no2)c1 (stereo not drawn)
3.95

Please indicate cytotoxicity at 70.5 h recorded for c1ccc(CN2CC[C@@H]3O[C@@H](COCC4CCOCC4)CC[C@@H]32)nc1
-14.4

Please indicate cytotoxicity at 70.5 h recorded for O=C(Cc1csc(-c2ccccc2F)n1)NCc1cccc(C(=O)O)c1
-17.7

Please indicate cytotoxicity at 70.5 h recorded for Cc1ccc(S(=O)(=O)N2Cc3c(CN(C)C)nn(C)c3C2)cc1
3.97

Please indicate cytotoxicity at 70.5 h recorded for Cc1ccc(NC(=O)NC(C)(C)c2noc(C)n2)cc1
7.68

Please indicate cytotoxicity at 70.5 h recorded for C[C@]1(O)CN(Cc2ncccc2F)CC[C@@H]1Oc1ccccc1
-7.87

Please indicate cytotoxicity at 70.5 h recorded for CCc1nc(-c2ccnc(N3CCNCC3)n2)no1
-2.35

Please indicate cytotoxicity at 70.5 h recorded for Cc1cn2nc(N3CCN(Cc4nc(C(C)C)no4)CC3)sc2n1
19.7

Please indicate cytotoxicity at 70.5 h recorded for Clc1ccccc1CN1CCc2nc(C3CCCNC3)ncc2C1 (stereo not drawn)
-7.56

Please indicate cytotoxicity at 70.5 h recorded for COc1ccc(N(C)Cc2nc3c(cnn3C)c(=O)[nH]2)cc1OC
0.734

Please indicate cytotoxicity at 70.5 h recorded for Cn1ncc2c(N3CCC(CCO)CC3)nc(C(C)(C)C)nc21
-2.67

Please indicate cytotoxicity at 70.5 h recorded for CCCc1ccc(CN2CCN(C(=O)CC(C)C)[C@@H]3CS(=O)(=O)C[C@@H]32)o1
-9.85
